Hey, just so you know, these numbers are from ChEMBL document CHEMBL1142646.

Recorded pEC50 values for a group of compounds are listed next.
# System: Growth hormone secretagogue receptor type 1 (Homo sapiens)
# Sequence (Q92847 whole entry): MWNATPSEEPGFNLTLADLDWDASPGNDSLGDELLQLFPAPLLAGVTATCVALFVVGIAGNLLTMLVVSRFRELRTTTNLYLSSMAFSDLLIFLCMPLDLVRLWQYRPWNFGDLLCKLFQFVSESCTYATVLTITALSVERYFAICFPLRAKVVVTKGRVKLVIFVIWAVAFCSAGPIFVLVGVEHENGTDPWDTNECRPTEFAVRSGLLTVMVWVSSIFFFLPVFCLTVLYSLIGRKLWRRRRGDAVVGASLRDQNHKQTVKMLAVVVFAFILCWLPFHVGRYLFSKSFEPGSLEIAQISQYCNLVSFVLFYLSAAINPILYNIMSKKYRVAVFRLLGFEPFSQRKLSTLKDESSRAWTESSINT
# Assay Info: In vitro effective concentration against human growth hormone secretagogues
pEC50: −log10 of the molar value.

Compound	System	pEC50
COC(=O)C(C)(C)OC(=O)N1CCc2cc(OCc3ccccc3)ccc2C1C(=O)NCCN(C(C)C)C(C)C (stereo not drawn)	Growth hormone secretagogue receptor type 1 (Homo sapiens)	8.82
COc1ccc(Oc2ccc3c(c2)CCN(C(=O)OC(C)(C)C)C3C(=O)NCCN(C(C)C)C(C)C)cc1 (stereo not drawn)	Growth hormone secretagogue receptor type 1 (Homo sapiens)	9.31
CC(=O)C(C)(C)OC(=O)N1CCc2cc(OCc3ccccc3)ccc2C1C(=O)NCCN(C(C)C)C(C)C (stereo not drawn)	Growth hormone secretagogue receptor type 1 (Homo sapiens)	8.70
